assay: soluble fraction after stress (log2 fold change); higher = more stays soluble; pooled small domains, quantitative proteomics; settings: stress: 50 degC

sequence.record: HMKKNNTTPIPKTLNYVNIKGLSNEAVERLNKHKPSTLGQASRLEGITPAATSLISIAIKKNQLLEKAES
soluble fraction (log2): 0.251
//
sequence.record: HMQMRKENKILVTDIGEIDEVKVIFDDDNKPYLYSYNGEDEFYRPDETYKFFDNKEQAEEYVREN
soluble fraction (log2): 0.0625
//
sequence.record: HMSAAELFEERQRQYLRGRKSTKNIADNHGTIILRAGETITDQAIDKAKVAGKLVELVMNNE
soluble fraction (log2): 0.142
//
sequence.record: HMSGTYIVTVQANTLDIYKSMTSNDTIGKANKGDVFQILEDMGGGYAKVSYNDVEGYISIKDGDTSIDEM
soluble fraction (log2): -0.23
//
sequence.record: HMNVYAGTMINVVGLQVEDAASRLRGLFYSVKIVEEESQEPDGKVLRQNIAEGTKDLEAWTLVELTVSKYV
soluble fraction (log2): -0.872
//
sequence.record: HMEYKNYYDSPVGRLELLSDGVSLTAVLFENQQGDGTREENTSLAIFKEATQWLDAYFKGDNPEITIPL
soluble fraction (log2): 0.0756
//
sequence.record: HMLMLTPGQIAQTLDVSTATVRRWSARYARHLSPNTPGKKRSYTVDDLAVLTRVRDLSATGTPLAQIDQAL
soluble fraction (log2): -2.02
//
sequence.record: HMTKLTTDERSVYLHIQNKPGVSASSIREALGYKKSKLTSILAQLLEVHKIIDTEGTGKSLKYIL
soluble fraction (log2): -0.0662
//
sequence.record: HMSWEQELIEKANEIIDLYPEKRSALGPLLYLAQERDGYISDESIVEISNLVGITEVQVKSVASFYSMYK
soluble fraction (log2): -3.57
//
sequence.record: HMLDQGTQSRYQIMDGVRALITGDWSSHGAGLVRELSQEVARTSGLTATSERTFFVPFSALS
soluble fraction (log2): 0.0364
//
sequence.record: HMGALARLLASVEQELGVTRDRMTRTQKQEAVTLLNEWGAFTLRKSVEDVAEALGVSRFTVYNYLERAEA
soluble fraction (log2): -2.74
//
sequence.record: HMTIFGWQTDETGKWYRNADGTFFEAGWKEIDGAKYYFDENGYVKTGWLELDGKDYYFDEEGRYDSSKVR
soluble fraction (log2): -0.33
//
sequence.record: HMAIKNKNEQLEAIIKFADLRGEFKTADIEELLSIKSSRARLLISELVKIGKLESIGSNRNRRYHIK
soluble fraction (log2): -0.52
//
sequence.record: HMNVRAYKVSKESELTVEEKLEAVRGYGVADLLYVIREFEENPGKYEPEVIKLIVQQLTDKGIM
soluble fraction (log2): 0.199
//
sequence.record: HMITMADKIDTALSEMAANNEKINVSQVAKRLGISNSAIYKFNPEKIPDIQTAQKRQKHKAEAIAVGTEN
soluble fraction (log2): 0.215
//
sequence.record: HMYVKKSSFVKKSLNNYEFKITDNTNDLLIFYKGMLPDLFREEQGIVVEGLIDKNNNIVASKV
soluble fraction (log2): -0.0872
//
sequence.record: HMNSPSKVIDISQLRKGMFVQLDLGWMSHPFAVGSFKVSTDEQIQTLRGLGLSEVRYIPEKSDPA
soluble fraction (log2): -0.514
